Hi there, I'd appreciate the recorded IC50 for every entry that follows.
- System: HepG-2
- Assay Details: Cytotoxicity assay
- Type: cell-based, Human
- Protocol Conditions: Homo sapiens, HepG2, 48 h, read-out: IC50 HepG-2
Answers are plain numbers, in nM.

Here's what some known entries look like.
Chemical Structure | IC50 [nM]
CN(C)C(=S)NN=C(c1ccccc1)c1ccccn1 | 570
CNC(=S)NN=C(c1ccccc1)c1ccccn1 | 4560
S=C(NN=C(c1ccccc1)c1ccccn1)NC1CCCCC1 | 1320
NC(=S)NN=C(c1ccccc1)c1ccccn1 | 11400
CCNC(=S)NN=C(c1ccccc1)c1ccccn1 | 2430

Let's switch to this compound now.
Looking up CN(C(=S)NN=C(c1ccccc1)c1ccccn1)C1CCCCC1 , I see its IC50 listed as 320
